The values you see were collected from patent US7846959B2.

# SYSTEM_UNDER_TEST: B-Raf (Homo sapiens)
# Sequence (P15056 whole entry): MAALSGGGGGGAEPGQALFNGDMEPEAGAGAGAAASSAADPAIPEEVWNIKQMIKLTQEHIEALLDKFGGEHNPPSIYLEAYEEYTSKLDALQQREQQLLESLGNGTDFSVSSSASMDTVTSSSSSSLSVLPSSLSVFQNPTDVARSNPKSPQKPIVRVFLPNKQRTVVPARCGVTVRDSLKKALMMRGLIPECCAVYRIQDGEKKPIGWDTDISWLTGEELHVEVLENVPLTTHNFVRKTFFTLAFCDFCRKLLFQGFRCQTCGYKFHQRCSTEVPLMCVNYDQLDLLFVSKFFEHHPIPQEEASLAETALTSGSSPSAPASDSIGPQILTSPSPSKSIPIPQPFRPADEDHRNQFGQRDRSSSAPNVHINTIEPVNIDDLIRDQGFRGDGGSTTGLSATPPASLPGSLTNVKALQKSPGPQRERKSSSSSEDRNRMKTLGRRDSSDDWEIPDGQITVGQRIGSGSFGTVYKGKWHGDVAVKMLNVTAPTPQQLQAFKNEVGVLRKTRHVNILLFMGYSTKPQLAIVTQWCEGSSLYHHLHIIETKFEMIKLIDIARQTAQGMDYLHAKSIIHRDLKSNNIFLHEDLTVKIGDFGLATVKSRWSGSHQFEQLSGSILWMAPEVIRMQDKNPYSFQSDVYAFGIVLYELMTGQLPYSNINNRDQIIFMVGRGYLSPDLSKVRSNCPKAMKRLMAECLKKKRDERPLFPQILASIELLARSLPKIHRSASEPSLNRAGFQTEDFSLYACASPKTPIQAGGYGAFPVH
# ASSAY_OVERVIEW: Luciferase-coupled chemiluminescence kinase assay (ATP consumption), B-Raf
# Type: biochemical
# CONDITION_DESCRIPTION: read-out: bRaf IC50
MEASUREMENT_KIND: IC50

COMPOUND | MEASUREMENT_KIND | DATA_VALUE
NC(=O)c1cccc(N2C(=O)c3ccccc3C2(O)c2ccc3c(c2)NC(=O)CO3)c1 (centres unmarked) | IC50 | 1 to 10 µM
CCCC(=O)Nc1nc2ccc(C3(O)c4ccccc4C(=O)N3c3ccc(F)cc3)cc2[nH]1 (centres unmarked) | IC50 | < 0.1 µM
COC(=O)Nc1nc2cc(C3(O)c4ccccc4C(=O)N3c3cc(Cl)c(Cl)cc3F)ccc2[nH]1 (centres unmarked) | IC50 | < 0.1 µM
CC(C)(C)n1c(N)nc2cc(C3(O)c4ccccc4C(=O)N3Cc3ccccc3)ccc21 (centres unmarked) | IC50 | ≥ 10 µM
COC(=O)Nc1nc2cc(C3(O)c4ccccc4C(=O)N3C(C)c3cc(Br)cs3)ccc2[nH]1 (centres unmarked) | IC50 | < 0.1 µM
Nc1ccccc1N1C(=O)c2ccccc2C1(O)c1ccc2c(c1)NC(=O)CO2 (centres unmarked) | IC50 | 0.1 to 1 µM
COC(=O)Nc1nc2cc(C3(O)c4ccccc4C(=O)N3c3cc(Cl)c(F)cc3F)ccc2[nH]1 (centres unmarked) | IC50 | < 0.1 µM
COC(=O)Nc1nc2cc(C3(O)c4ccccc4C(=O)N3CC3CCCO3)ccc2[nH]1 (centres unmarked) | IC50 | 0.1 to 1 µM

* * *

# SYSTEM_UNDER_TEST: B-Raf (Homo sapiens)
# ASSAY_OVERVIEW: Luciferase-coupled chemiluminescence kinase assay (ATP consumption), B-Raf
# Format: biochemical
# CONDITION_DESCRIPTION: read-out: bRaf IC50
pIC50: −log10 of the molar value.
# Lookup of reported pIC50 keyed by entry
MEASUREMENT_KIND: pIC50

MOLECULE | MEASUREMENT_KIND | DATA_VALUE
O=C1COc2ccc(C3(O)c4ccccc4C(=O)N3c3cccc(O)c3)cc2N1 (centres unmarked) | pIC50 | 5.00 to 6.00
CC[C@@H](c1ccccc1)N1C(=O)c2ccccc2C1(O)c1ccc2[nH]c(NC(=O)OC)nc2c1 (some centres unmarked) | pIC50 | 5.00 to 6.00
Cc1cccc(N2C(=O)c3ccccc3C2(O)c2ccc3c(c2)NC(=O)CO3)c1 (centres unmarked) | pIC50 | 6.00 to 7.00
COC(=O)Nc1nc2cc(C3(O)c4ccccc4C(=O)N3[C@H](C(=O)OC)C3CCCCC3)ccc2[nH]1 (some centres unmarked) | pIC50 | 5.00 to 6.00
O=C(CCCOCc1ccccc1)Nc1nc2cc(C3(O)c4ccccc4C(=O)N3Cc3ccccc3)ccc2[nH]1 (centres unmarked) | pIC50 | > 7.00
CN(C)C(=O)Nc1nc2cc(C3(O)c4ccccc4C(=O)N3Cc3ccccc3)ccc2[nH]1 (centres unmarked) | pIC50 | > 7.00
CS(=O)(=O)c1cccc(N2C(=O)c3ccccc3C2(O)c2ccc3c(c2)NC(=O)CO3)c1 (centres unmarked) | pIC50 | ≤ 5.00
COC(=O)Nc1nc2cc(C3(O)c4ccccc4C(=O)N3Cc3ccccc3C)ccc2[nH]1 (centres unmarked) | pIC50 | > 7.00

* * *

# SYSTEM_UNDER_TEST: B-Raf (Homo sapiens)
# ASSAY_OVERVIEW: Luciferase-coupled chemiluminescence kinase assay (ATP consumption), B-Raf
# Assay type: biochemical
# CONDITION_DESCRIPTION: read-out: bRaf IC50
MEASUREMENT_KIND: IC50

COMPOUND | SYSTEM_UNDER_TEST | DATA_VALUE
COC(=O)Nc1nc2cc(C3(O)c4ccccc4C(=O)N3c3cccc(Cl)c3F)ccc2[nH]1 (centres unmarked) | B-Raf (Homo sapiens) | < 100 nM
CCc1cccc(N2C(=O)c3ccccc3C2(O)c2ccc3c(c2)NC(=O)CO3)c1 (centres unmarked) | B-Raf (Homo sapiens) | 100 to 1000 nM
COC(=O)Nc1nc2cc(C3(O)c4ccccc4C(=O)N3c3cc(F)cc(F)c3)ccc2[nH]1 (centres unmarked) | B-Raf (Homo sapiens) | 100 to 1000 nM
COC(=O)Nc1nc2cc(C3(O)c4ccccc4C(=O)N3c3cccc(CN(C)C)c3)ccc2[nH]1 (centres unmarked) | B-Raf (Homo sapiens) | 100 to 1000 nM
O=C1c2ccccc2C(O)(c2ccc3cc[nH]c3c2)N1Cc1ccccc1 (centres unmarked) | B-Raf (Homo sapiens) | ≥ 10000 nM
COC(=O)Nc1nc2cc(C3(O)c4ccccc4C(=O)N3C(C)c3sccc3Cl)ccc2[nH]1 (centres unmarked) | B-Raf (Homo sapiens) | 1000 to 10000 nM
NS(=O)(=O)c1cccc(N2C(=O)c3ccccc3C2(O)c2ccc3c(c2)NC(=O)CO3)c1 (centres unmarked) | B-Raf (Homo sapiens) | ≥ 10000 nM
CNC(=O)Nc1nc2cc(C3(O)c4ccccc4C(=O)N3Cc3ccccc3)ccc2[nH]1 (centres unmarked) | B-Raf (Homo sapiens) | < 100 nM
COC(=O)Nc1nc2cc(C3(O)c4ccccc4C(=O)N3C(C)c3ccc(Br)s3)ccc2[nH]1 (centres unmarked) | B-Raf (Homo sapiens) | < 100 nM
CN1CCN(CCCC(=O)Nc2nc3cc(C4(O)c5ccccc5C(=O)N4Cc4ccccc4)ccc3[nH]2)CC1 (centres unmarked) | B-Raf (Homo sapiens) | < 100 nM
C#CCCC(=O)Nc1nc2ccc(C3(O)c4ccccc4C(=O)N3Cc3ccccc3)cc2[nH]1 (centres unmarked) | B-Raf (Homo sapiens) | < 100 nM
COC(=O)Nc1nc2cc(C3(O)NC(=O)c4ccccc43)ccc2[nH]1 (centres unmarked) | B-Raf (Homo sapiens) | ≥ 10000 nM
COC(=O)Nc1nc2cc(C3(O)c4ccccc4C(=O)N3c3cc(Cl)c(F)c(Cl)c3)ccc2[nH]1 (centres unmarked) | B-Raf (Homo sapiens) | 1000 to 10000 nM
CN(C)Cc1cccc(N2C(=O)c3ccccc3C2(O)c2ccc3c(c2)NC(=O)CO3)c1 (centres unmarked) | B-Raf (Homo sapiens) | 1000 to 10000 nM
COC(=O)Nc1nc2ccc(C3(O)c4cc(Cl)c(Cl)cc4C(=O)N3c3cccc(Br)c3)cc2[nH]1 (centres unmarked) | B-Raf (Homo sapiens) | 1000 to 10000 nM
COC(=O)Nc1nc2cc(C3(O)c4ccccc4C(=O)N3c3cccc(-c4ccccc4)c3)ccc2[nH]1 (centres unmarked) | B-Raf (Homo sapiens) | 1000 to 10000 nM
COC(=O)Nc1nc2cc(C3(O)c4ccccc4C(=O)N3Cc3nccs3)ccc2[nH]1 (centres unmarked) | B-Raf (Homo sapiens) | 100 to 1000 nM
COC(=O)Nc1nc2cc(C3(O)c4ccccc4C(=O)N3C(C)c3ccc(C)s3)ccc2[nH]1 (centres unmarked) | B-Raf (Homo sapiens) | < 100 nM
O=C1COc2ccc(C3(O)c4ccccc4C(=O)N3c3cccc(F)c3)cc2N1 (centres unmarked) | B-Raf (Homo sapiens) | 1000 to 10000 nM
C[C@H](c1ccccc1)N1C(=O)c2ccccc2C1(O)c1ccc2[nH]c(NC(=O)OCc3ccccc3)nc2c1 (some centres unmarked) | B-Raf (Homo sapiens) | < 100 nM
O=C1COc2ccc(C3(O)c4ccccc4C(=O)N3Cc3ccccc3Cl)cc2N1 (centres unmarked) | B-Raf (Homo sapiens) | ≥ 10000 nM
COC(=O)Nc1nc2cc(C3(O)c4ccccc4C(=O)N3c3c(F)cccc3F)ccc2[nH]1 (centres unmarked) | B-Raf (Homo sapiens) | < 100 nM
CCCOC(=O)Nc1nc2cc(C3(O)c4ccccc4C(=O)N3Cc3ccccc3)ccc2[nH]1 (centres unmarked) | B-Raf (Homo sapiens) | < 100 nM
COC(=O)Nc1nc2cc(C3(O)c4ccccc4C(=O)N3c3cccc(Cl)c3)ccc2[nH]1 (centres unmarked) | B-Raf (Homo sapiens) | < 100 nM
Cc1c(Cl)cccc1N1C(=O)c2ccccc2C1(O)c1ccc2c(c1)NC(=O)CO2 (centres unmarked) | B-Raf (Homo sapiens) | 100 to 1000 nM
O=C1COc2ccc(C3(O)c4ccccc4C(=O)N3c3cccc(OC(F)(F)F)c3)cc2N1 (centres unmarked) | B-Raf (Homo sapiens) | ≥ 10000 nM
O=C(Nc1nc2cc(C3(O)c4ccccc4C(=O)N3Cc3ccccc3)ccc2[nH]1)OCC1CCNCC1 (centres unmarked) | B-Raf (Homo sapiens) | < 100 nM
CC(C)(CO)COC(=O)Nc1nc2cc(C3(O)c4ccccc4C(=O)N3Cc3ccccc3)ccc2[nH]1 (centres unmarked) | B-Raf (Homo sapiens) | 100 to 1000 nM
COC(=O)Nc1nc2cc(C3(O)c4ccccc4C(=O)N3c3cccc(C(N)=O)c3)ccc2[nH]1 (centres unmarked) | B-Raf (Homo sapiens) | < 100 nM
COC(=O)Nc1nc2cc(C3(O)c4ccccc4C(=O)N3c3cccc(S(N)(=O)=O)c3)ccc2[nH]1 (centres unmarked) | B-Raf (Homo sapiens) | 100 to 1000 nM
C#Cc1cccc(N2C(=O)c3ccccc3C2(O)c2ccc3c(c2)NC(=O)CO3)c1 (centres unmarked) | B-Raf (Homo sapiens) | 100 to 1000 nM
COC(=O)Nc1nc2cc(C3(O)c4ccccc4C(=O)N3Cc3ccccc3F)ccc2[nH]1 (centres unmarked) | B-Raf (Homo sapiens) | < 100 nM
